Reference source: paper PMC6150220

experimental.details: in vivo
condition.details: male, beagle, dog, in vivo, po, 0.5 g/kg
measured.parameter: half-life (h)

{"columns": ["molecule", "half-life, h"],
 "data": [
  ["O=C(O)CC(O)(CC(=O)OCc1ccc(OC2OC(CO)C(O)C(O)C2O)cc1)C(=O)OCc1ccc(OC2OC(CO)C(O)C(O)C2O)cc1 (stereo not shown) [Parishin B, parishin B]", 1.17],
  ["O=C(CC(O)(CC(=O)OCc1ccc(OC2OC(CO)C(O)C(O)C2O)cc1)C(=O)OCc1ccc(OC2OC(CO)C(O)C(O)C2O)cc1)OCc1ccc(OC2OC(CO)C(O)C(O)C2O)cc1 (stereo not shown) [Parishin, parishin]", 1.05],
  ["OCc1ccc(O[C@@H]2O[C@H](CO)[C@@H](O)[C@H](O)[C@H]2O)cc1 [Gastrodin, gastrodin]", 2.09],
  ["O=C(CC(O)(CC(=O)OCc1ccc(O[C@@H]2O[C@H](CO)[C@@H](O)[C@H](O)[C@H]2O)cc1)C(=O)O)OCc1ccc(O[C@@H]2O[C@H](CO)[C@@H](O)[C@H](O)[C@H]2O)cc1 [Parishin C, parishin C]", 1.29]
]}

---

experimental.details: Pharmacokinetic study in beagle dog plasma (LC-MS/MS) after intragastric administration of tall Gastrodia capsules
condition.details: male, beagle, dog, in vivo, po, 0.5 g/kg
Method: After full validation, the LC-ESI-MS/MS method was used to analyze large batches of beagle dog plasma. […] The corresponding pharmacokinetic parameters were generated by fitting plasma concentration profiles to a non-compartmental model. These are summarized in Table 3, expressed as the mean ± SD (n = 5). Quantitative analysis was conducted on a 1290 UPLC-photodiode array 6460 triple quadrupole mass spectrometry system (LC-MS/MS, Agilent Technologies, Palo Alto, CA, USA). Analysis was carried out on. […]
measured.parameter: AUC(0-t) (ng·h/mL)

{"columns": ["compound", "unit.string", "AUC(0-t)"],
 "data": [
  ["OCc1ccc(O[C@@H]2O[C@H](CO)[C@@H](O)[C@H](O)[C@H]2O)cc1 [Gastrodin, gastrodin]", "ng·h/mL", 17000]
]}

(A) O=C(CC(O)(CC(=O)OCc1ccc(O[C@@H]2O[C@H](CO)[C@@H](O)[C@H](O)[C@H]2O)cc1)C(=O)O)OCc1ccc(O[C@@H]2O[C@H](CO)[C@@H](O)[C@H](O)[C@H]2O)cc1 [Parishin C, parishin C]
(B) O=C(CC(O)(CC(=O)OCc1ccc(OC2OC(CO)C(O)C(O)C2O)cc1)C(=O)OCc1ccc(OC2OC(CO)C(O)C(O)C2O)cc1)OCc1ccc(OC2OC(CO)C(O)C(O)C2O)cc1 (stereo not shown) [Parishin, parishin]
(C) O=C(O)CC(O)(CC(=O)OCc1ccc(OC2OC(CO)C(O)C(O)C2O)cc1)C(=O)OCc1ccc(OC2OC(CO)C(O)C(O)C2O)cc1 (stereo not shown) [Parishin B, parishin B]
// sort entries: AUC(0-t), high to low Labels, ranked as asked.
C, B, A

---

experimental.details: in vivo
condition.details: male, beagle, dog, in vivo, po, 0.125 g/kg
Experimental: After full validation, the LC-ESI-MS/MS method was used to analyze large batches of beagle dog plasma. […] The corresponding pharmacokinetic parameters were generated by fitting plasma concentration profiles to a non-compartmental model. These are summarized in Table 3, expressed as the mean ± SD (n = 5). Quantitative analysis was conducted on a 1290 UPLC-photodiode array 6460 triple quadrupole mass spectrometry system (LC-MS/MS, Agilent Technologies, Palo Alto, CA, USA). Analysis was carried out on. […]
measured.parameter: half-life (min)

{"columns": ["compound", "unit.string", "half-life"],
 "data": [
  ["O=C(O)CC(O)(CC(=O)OCc1ccc(OC2OC(CO)C(O)C(O)C2O)cc1)C(=O)OCc1ccc(OC2OC(CO)C(O)C(O)C2O)cc1 (stereo not shown)", "min", 64.8],
  ["O=C(CC(O)(CC(=O)OCc1ccc(OC2OC(CO)C(O)C(O)C2O)cc1)C(=O)OCc1ccc(OC2OC(CO)C(O)C(O)C2O)cc1)OCc1ccc(OC2OC(CO)C(O)C(O)C2O)cc1 (stereo not shown)", "min", 69],
  ["O=C(CC(O)(CC(=O)OCc1ccc(O[C@@H]2O[C@H](CO)[C@@H](O)[C@H](O)[C@H]2O)cc1)C(=O)O)OCc1ccc(O[C@@H]2O[C@H](CO)[C@@H](O)[C@H](O)[C@H]2O)cc1", "min", 82.2],
  ["OCc1ccc(O[C@@H]2O[C@H](CO)[C@@H](O)[C@H](O)[C@H]2O)cc1", "min", 112]
]}

---

experimental.details: in vivo
condition.details: male, beagle, dog, in vivo, po, 0.5 g/kg
measured.parameter: Cmax (ng/mL)

Consider the worked cases shown below.
{"columns": ["compound", "Cmax (ng/mL)"],
 "data": [
  ["O=C(O)CC(O)(CC(=O)OCc1ccc(OC2OC(CO)C(O)C(O)C2O)cc1)C(=O)OCc1ccc(OC2OC(CO)C(O)C(O)C2O)cc1 (stereo not shown)", 1220],
  ["OCc1ccc(O[C@@H]2O[C@H](CO)[C@@H](O)[C@H](O)[C@H]2O)cc1", 3760]
]}

(A) O=C(CC(O)(CC(=O)OCc1ccc(OC2OC(CO)C(O)C(O)C2O)cc1)C(=O)OCc1ccc(OC2OC(CO)C(O)C(O)C2O)cc1)OCc1ccc(OC2OC(CO)C(O)C(O)C2O)cc1 (stereo not shown)
(B) O=C(CC(O)(CC(=O)OCc1ccc(O[C@@H]2O[C@H](CO)[C@@H](O)[C@H](O)[C@H]2O)cc1)C(=O)O)OCc1ccc(O[C@@H]2O[C@H](CO)[C@@H](O)[C@H](O)[C@H]2O)cc1
Would you let me know which has the greater Cmax value, A or B ? Please reply using the label of the selected record.
A
(A: 969 ng/mL, B: 243 ng/mL)

---

experimental.details: in vivo
condition.details: male, beagle, dog, in vivo, po, 0.125 g/kg
measured.parameter: MRT last (h)

{"columns": ["molecule", "MRT last / h"],
 "data": [
  ["O=C(CC(O)(CC(=O)OCc1ccc(O[C@@H]2O[C@H](CO)[C@@H](O)[C@H](O)[C@H]2O)cc1)C(=O)O)OCc1ccc(O[C@@H]2O[C@H](CO)[C@@H](O)[C@H](O)[C@H]2O)cc1 [Parishin C, parishin C]", 2.47],
  ["OCc1ccc(O[C@@H]2O[C@H](CO)[C@@H](O)[C@H](O)[C@H]2O)cc1 [Gastrodin, gastrodin]", 2.98],
  ["O=C(O)CC(O)(CC(=O)OCc1ccc(OC2OC(CO)C(O)C(O)C2O)cc1)C(=O)OCc1ccc(OC2OC(CO)C(O)C(O)C2O)cc1 (stereo not shown) [Parishin B, parishin B]", 2.25],
  ["O=C(CC(O)(CC(=O)OCc1ccc(OC2OC(CO)C(O)C(O)C2O)cc1)C(=O)OCc1ccc(OC2OC(CO)C(O)C(O)C2O)cc1)OCc1ccc(OC2OC(CO)C(O)C(O)C2O)cc1 (stereo not shown) [Parishin, parishin]", 1.8]
]}

---

experimental.details: Pharmacokinetic study in beagle dog plasma (LC-MS/MS) after intragastric administration of tall Gastrodia capsules
condition.details: male, beagle, dog, in vivo, po, 0.5 g/kg
measured.parameter: MRT last (h)

{"columns": ["molecule", "number"],
 "data": [
  ["OCc1ccc(O[C@@H]2O[C@H](CO)[C@@H](O)[C@H](O)[C@H]2O)cc1", 3.54],
  ["O=C(CC(O)(CC(=O)OCc1ccc(O[C@@H]2O[C@H](CO)[C@@H](O)[C@H](O)[C@H]2O)cc1)C(=O)O)OCc1ccc(O[C@@H]2O[C@H](CO)[C@@H](O)[C@H](O)[C@H]2O)cc1", 3.18],
  ["O=C(O)CC(O)(CC(=O)OCc1ccc(OC2OC(CO)C(O)C(O)C2O)cc1)C(=O)OCc1ccc(OC2OC(CO)C(O)C(O)C2O)cc1 (stereo not shown)", 2.76],
  ["O=C(CC(O)(CC(=O)OCc1ccc(OC2OC(CO)C(O)C(O)C2O)cc1)C(=O)OCc1ccc(OC2OC(CO)C(O)C(O)C2O)cc1)OCc1ccc(OC2OC(CO)C(O)C(O)C2O)cc1 (stereo not shown)", 2.48]
]}

---

experimental.details: in vivo
condition.details: male, beagle, dog, in vivo, po, 0.25 g/kg
Description: After full validation, the LC-ESI-MS/MS method was used to analyze large batches of beagle dog plasma. […] The corresponding pharmacokinetic parameters were generated by fitting plasma concentration profiles to a non-compartmental model. These are summarized in Table 3, expressed as the mean ± SD (n = 5). Quantitative analysis was conducted on a 1290 UPLC-photodiode array 6460 triple quadrupole mass spectrometry system (LC-MS/MS, Agilent Technologies, Palo Alto, CA, USA). Analysis was carried out on. […]
measured.parameter: MRT last (h)

{"columns": ["molecule", "unit.string", "MRT last"],
 "data": [
  ["O=C(O)CC(O)(CC(=O)OCc1ccc(OC2OC(CO)C(O)C(O)C2O)cc1)C(=O)OCc1ccc(OC2OC(CO)C(O)C(O)C2O)cc1 (stereo not shown) [Parishin B, parishin B]", "h", 2.78],
  ["OCc1ccc(O[C@@H]2O[C@H](CO)[C@@H](O)[C@H](O)[C@H]2O)cc1 [Gastrodin, gastrodin]", "h", 3.46],
  ["O=C(CC(O)(CC(=O)OCc1ccc(OC2OC(CO)C(O)C(O)C2O)cc1)C(=O)OCc1ccc(OC2OC(CO)C(O)C(O)C2O)cc1)OCc1ccc(OC2OC(CO)C(O)C(O)C2O)cc1 (stereo not shown) [Parishin, parishin]", "h", 2.49],
  ["O=C(CC(O)(CC(=O)OCc1ccc(O[C@@H]2O[C@H](CO)[C@@H](O)[C@H](O)[C@H]2O)cc1)C(=O)O)OCc1ccc(O[C@@H]2O[C@H](CO)[C@@H](O)[C@H](O)[C@H]2O)cc1 [Parishin C, parishin C]", "h", 3.14]
]}
